Each recorded value in this set is attributed to paper PMC9355564.

Target: T1, recombinant Ssa1 (S. cerevisiae, UniProt P10591 1-642)
T1 construct: Ssa1, yeast cytosolic Hsp70 chaperone; also called Hsp70 Ssa1; source: recombinantly expressed and purified
T1 sequence (P10591 whole entry): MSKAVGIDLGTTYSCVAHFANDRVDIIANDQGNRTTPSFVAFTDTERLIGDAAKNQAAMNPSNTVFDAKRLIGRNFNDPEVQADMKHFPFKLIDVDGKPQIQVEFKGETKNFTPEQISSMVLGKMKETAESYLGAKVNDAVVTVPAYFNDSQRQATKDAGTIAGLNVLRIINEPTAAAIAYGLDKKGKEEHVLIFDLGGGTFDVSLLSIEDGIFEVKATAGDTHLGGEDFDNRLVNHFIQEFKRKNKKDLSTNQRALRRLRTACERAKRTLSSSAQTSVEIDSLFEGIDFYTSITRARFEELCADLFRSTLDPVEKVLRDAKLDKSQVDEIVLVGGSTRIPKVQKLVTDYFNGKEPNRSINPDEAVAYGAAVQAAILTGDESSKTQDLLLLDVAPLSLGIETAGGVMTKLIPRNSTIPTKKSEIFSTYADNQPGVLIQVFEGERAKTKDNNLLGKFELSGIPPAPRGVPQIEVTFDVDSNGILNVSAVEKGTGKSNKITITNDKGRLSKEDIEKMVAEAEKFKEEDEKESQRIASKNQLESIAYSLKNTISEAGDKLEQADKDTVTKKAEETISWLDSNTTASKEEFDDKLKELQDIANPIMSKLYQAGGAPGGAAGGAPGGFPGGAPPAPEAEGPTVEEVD
Assay: fluorescence polarisation; fluorescence anisotropy titration, 2 µM TAMRA-labeled peptide with increasing concentrations of Ssa1 or Sis1, 30 °C; Kd from hyperbolic regression of the difference in anisotropy
Conditions: both partners purified
Ends that are not written are not given here.
Catalogue of Kd values
Write the numeric value and follow it with the unit.

MFSRLSRSHSKALPIALGTVAIAAATAFYFANRNQHSFV (peptide, UniProt P36060 1-39, looked up, also: TAMRA label, position not given here, Mcr1, residues 1-39, contain the transmembrane segment; synthesis as in Jores et al., 2016; also called Mcr1(TMS); Mcr1-TMS peptide; source: synthetic peptide) [TAMRA-labeled Mcr1 peptide, residues 1-39]: 3270 nM

Okay, next one:
[ask] For the binder MKSFITRNKTAILATVAATGTAIGAYYYYNQL (peptide, UniProt P07213 1-32, looked up, also: TAMRA label, position not given here, Tom70, residues 1-32, contain the transmembrane segment; synthesis as in Jores et al., 2016; also called Tom70(TMS); TMS-labelled peptide of Tom70; source: synthetic peptide) [TAMRA-labeled Tom70 peptide, residues 1-32] , report Kd.
[reply] 2420 nM
